Item-by-item account of shrunken log2 fold change
# Tested on: Escherichia coli TOP10;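 also: peptides expressed intracellularly from a pBAD plasmid library in pooled LB shake-flask culture, induced with 0.3% L-arabinose, DNA abundance read by NGS, three biological replicates, DESeq2 with apeglm shrinkage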
# experimental.protocol: shrunken log2 fold change of peptide-encoding DNA abundance (4.5 h post-induction vs induction); higher = less antimicrobial activity (less host growth inhibition)
# condition.context: time post-induction: 4.5 h; library: site-saturation at positions 5, 18, 19, 20
Field format: numeric only.

Study these solved cases before continuing.
{"sequence.chain": "RRIRFRPPRLPRPRPRPSGCPRP", "shrunken log2 fold change": -0.0116}
{"sequence.chain": "RRIRHRPPRLPRPRPRPQAQPRP", "shrunken log2 fold change": -0.208}
{"sequence.chain": "RRIRHRPPRLPRPRPRPAGFPRP", "shrunken log2 fold change": -0.207}

Input `RRIRKRPPRLPRPRPRPVFYPRP` . Output shrunken log2 fold change: -0.0751
